TEST_SYSTEM: T1, human Tie1, full length, V5-tagged (pcDNA3-Tie1-V5), in transiently transfected COS1 cells (human, UniProt P35590 25-1138)
T1 construct: it is not expressly tied to the pcDNA3-Tie1-V5 construct; also called Tie1-transfected; transfected Tie1
T1 sequence (P35590 25-1138): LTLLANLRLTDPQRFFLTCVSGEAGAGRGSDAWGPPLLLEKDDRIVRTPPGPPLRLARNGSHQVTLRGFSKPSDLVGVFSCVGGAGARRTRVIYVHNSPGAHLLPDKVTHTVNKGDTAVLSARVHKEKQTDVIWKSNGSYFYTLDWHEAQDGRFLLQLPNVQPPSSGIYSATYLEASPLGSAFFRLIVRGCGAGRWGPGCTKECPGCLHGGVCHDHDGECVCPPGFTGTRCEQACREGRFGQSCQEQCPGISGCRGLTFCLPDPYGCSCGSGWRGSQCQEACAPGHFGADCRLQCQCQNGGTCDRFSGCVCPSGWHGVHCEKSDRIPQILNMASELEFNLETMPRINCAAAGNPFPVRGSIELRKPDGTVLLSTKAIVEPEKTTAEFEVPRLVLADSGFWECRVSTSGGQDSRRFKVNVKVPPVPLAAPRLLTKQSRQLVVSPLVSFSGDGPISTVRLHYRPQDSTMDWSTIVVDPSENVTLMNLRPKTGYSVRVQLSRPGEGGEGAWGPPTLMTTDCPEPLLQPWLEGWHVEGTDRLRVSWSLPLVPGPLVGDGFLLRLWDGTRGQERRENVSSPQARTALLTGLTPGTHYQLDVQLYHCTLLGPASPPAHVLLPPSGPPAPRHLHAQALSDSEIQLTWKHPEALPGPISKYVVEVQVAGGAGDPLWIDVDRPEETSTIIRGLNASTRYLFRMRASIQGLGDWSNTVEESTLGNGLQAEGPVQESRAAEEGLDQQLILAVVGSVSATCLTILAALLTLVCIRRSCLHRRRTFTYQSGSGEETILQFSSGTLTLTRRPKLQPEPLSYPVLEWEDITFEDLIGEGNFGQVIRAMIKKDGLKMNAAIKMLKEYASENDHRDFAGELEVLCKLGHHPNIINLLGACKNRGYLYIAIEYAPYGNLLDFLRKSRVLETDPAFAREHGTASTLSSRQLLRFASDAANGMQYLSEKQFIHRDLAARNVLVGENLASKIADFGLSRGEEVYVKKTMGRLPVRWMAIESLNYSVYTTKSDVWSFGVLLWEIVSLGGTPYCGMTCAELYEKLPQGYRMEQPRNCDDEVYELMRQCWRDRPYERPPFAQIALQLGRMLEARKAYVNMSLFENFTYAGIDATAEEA
ASSAY_METHOD_TEXT: Western blot, Tie1-V5-transfected COS1
QUANTITY_MEASURED: binding result

BINDER | QUANTITY_MEASURED | ASSAY_VALUE
P-G3 IgG (anti-Tie1 isolate p-G3, human IgG1) (antibody, V domains shown, lambda VL entry stops within FR4) VH: EVQLLESGGGLVQPGGSLRLSCAASGFTFSHYMMVWVRQAPGKGLEWVSSIYPSGGWTYYADSVKGRFTISRDNSKNTLYLQMNSLRAEDTAVYYCARLDYGGNSAYFDYWGQGTLVTVSS VL: QSVLTQPHSVSASPGKTVTISCTRSSGNIASNFVQWYQQRPGSVPTTVIYEDDRRPSGVPDRFSGSIDSSSNSAFLSISGLKTEDEADYYCQSHDRTTRAWVFGGGTKL | binding result | binds
P-F4 IgG (anti-Tie1 isolate p-F4, human IgG1) (antibody, V domains shown, the VL entry stops within FR4) VH: EVQLLESGGGLVQPGGSLRLSCAASGFTFSAYMMSWVRQAPGKGLEWVSSIYPSGGYTYYADSVKGRFTISRDNSKNTLYLQMNSLRAEDTAVYYCARGLRGGPDYWGQGTLVTVSS VL: DIQMTQSPSTLSAYVGDSVTITCRASQSVRRSLAWYQQRPGKAPKSLIYKASTLETGVPPRFSGSGSGTEFTLTISSLQPEDSAIYYCQQYGSFPLTFGGG | binding result | binds
